B1: Cyclin-F, residues 28 to 80; numbered along this chain, P41002 (parent)
chain: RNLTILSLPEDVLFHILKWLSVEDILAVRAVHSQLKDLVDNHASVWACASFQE

# Variants of: B1
# Assay protocol: abundance fitness (aPCA) (normalised: wild type 0, dead -1); higher = more abundant; growth selection in yeast, the domain comes from the species named
# Test context: Homo sapiens
Returns one of 1.0 or 0.0; 1.0 when abundance fitness is >= -0.6.

The following variants have reported results that may help.
1. RNLTILSLPEDVLFHILKWLSVEDILAVRAVHSQLKDLVDNHASVWACSSFQE	1.0
2. RNLTILSLPEDVLFHILKWLSVEAILAVRAVHSQLKDLVDNHASVWACASFQE	0.0

Could you verify whether the entry `RNLTILSLPEDVLFHILKWLSVEDILAVRAVHSQLKDLVDNHASVWACHSFQE` shows abundance fitness of no less than -0.6? 1.0

Could you verify whether the entry `RNLTILSLPEYVLFHILKWLSVEDILAVRAVHSQLKDLVDNHASVWACASFQE` shows abundance fitness of no less than -0.6? 1.0

Could you verify whether the entry `RNLTILSLPEDVLFHILKWLSVEDELAVRAVHSQLKDLVDNHASVWACASFQE` shows abundance fitness of no less than -0.6? 0.0

Could you verify whether the entry `RNLTILSLPEDVLFHILKWLSVTDILAVRAVHSQLKDLVDNHASVWACASFQE` shows abundance fitness of no less than -0.6? 1.0

Could you verify whether the entry `RNLTILSLPEDVLFHILKWLSVEDILAVRAVHSQLVDLVDNHASVWACASFQE` shows abundance fitness of no less than -0.6? 0.0
